Data origin, for the record: patent US10851109B2

System: SH-SYSY cells
run description: Modulation of PINK1: Caspase-Glo caspase 3/7 cleavage after MG-132 in SH-SYSY cells
Assay type: cell-based
condition info: Run2, compound 96 hours, then 25 uM MG-132 for 16 hours, % of kinetin's caspase cleavage values
measured quantity: Run2 Compound (avg as % kinetin)
Units required after the number.

Problem: Can you look up the measured Run2 Compound (avg as % kinetin) of c1coc(CNc2ccnc3[nH]ncc23)c1 [MTK- 59] for me?
Result: 108%

Problem: What about c1coc(CC2CNc3ncnc4ncn2c34)c1 (stereo not drawn) [MTK- 48] ?
Result: 122%

Problem: Then this compound: Cc1nc2c(NCc3ccco3)ncnc2[nH]1 [MTK- 64]
Result: 120%

Problem: Param item: c1coc(CNc2nccc3[nH]ncc23)c1 [MTK- 62]
Result: 132%

Problem: Similarly, c1coc(CNc2ccnc3[nH]cnc23)c1 [MTK- 58] ?
Result: 108%

Next:
Problem: What does the data say about its Run2 Compound (avg as % kinetin)? Entry: c1coc(CNc2ncnc3[nH]ncc23)c1 [MTK- 51]
Result: 92%
